Target: Serine/threonine-protein kinase B-raf (Homo sapiens, UniProt P15056, V600E)
Sequence (P15056 2-766 V600E limits assumed): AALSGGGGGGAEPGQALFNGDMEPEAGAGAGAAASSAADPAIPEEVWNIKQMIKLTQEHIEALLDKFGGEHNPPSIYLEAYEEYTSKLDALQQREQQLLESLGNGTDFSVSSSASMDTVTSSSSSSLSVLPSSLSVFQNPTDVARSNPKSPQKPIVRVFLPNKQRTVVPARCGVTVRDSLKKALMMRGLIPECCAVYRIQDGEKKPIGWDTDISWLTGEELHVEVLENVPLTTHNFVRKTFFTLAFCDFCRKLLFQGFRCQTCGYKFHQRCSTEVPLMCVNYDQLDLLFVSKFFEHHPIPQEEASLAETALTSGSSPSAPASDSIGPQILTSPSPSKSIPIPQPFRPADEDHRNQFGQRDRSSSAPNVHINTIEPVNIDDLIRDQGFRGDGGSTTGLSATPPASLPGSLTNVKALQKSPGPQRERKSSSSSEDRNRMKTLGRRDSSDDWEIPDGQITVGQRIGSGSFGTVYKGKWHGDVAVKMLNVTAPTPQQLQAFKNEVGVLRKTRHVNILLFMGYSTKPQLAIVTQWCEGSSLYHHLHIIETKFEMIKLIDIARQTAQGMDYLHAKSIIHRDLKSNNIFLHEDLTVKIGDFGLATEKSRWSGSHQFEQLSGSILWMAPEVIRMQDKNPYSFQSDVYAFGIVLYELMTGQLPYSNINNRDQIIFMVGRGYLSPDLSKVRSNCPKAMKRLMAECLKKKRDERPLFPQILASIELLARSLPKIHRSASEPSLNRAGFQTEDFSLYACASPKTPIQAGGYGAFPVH
pIC50: −log10 of the molar value.
So basically: pIC50 at 5 or higher? That is 1. Lower than 5? That is 0.

COc1cc(Nc2nc(-c3cccc(NC(C)=O)c3)cnc2NC(C)=O)cc(OC)c1OC = 0
COc1cc(Nc2cncc(Oc3ccc4c(c3)OC(=O)CC4)n2)cc(OC)c1OC = 0
COc1cc(Nc2cncc(Oc3cccc4c(NC(C)=O)cccc34)n2)cc(OC)c1OC = 1
COc1cc(Nc2cncc(Oc3cccc(C(C)=O)c3)n2)cc(OC)c1OC = 0
COc1cc(Nc2cncc(Oc3cccc4cnccc34)n2)cc(OC)c1OC = 1

query: Would you say `COc1cc(Nc2cncc(Oc3ccc(NC(C)=O)cc3)n2)cc(OC)c1OC` shows pIC50 at minimum 5?
result: 1

query: Would you say `COc1cc(Nc2cncc(Oc3ccc4c(c3)CCC/C4=N\O)n2)cc(OC)c1OC` shows pIC50 at minimum 5?
result: 0

query: Would you say `COc1cc(Nc2cncc(-c3ccncc3)n2)cc(OC)c1OC` shows pIC50 at minimum 5?
result: 1

query: Would you say `COc1cc(Nc2cncc(Oc3cccc(F)c3)n2)cc(OC)c1OC` shows pIC50 at minimum 5?
result: 0

query: Would you say `COc1cc(Nc2cncc(Oc3cccc(Cl)c3)n2)cc(OC)c1OC` shows pIC50 at minimum 5?
result: 0

----------
Reported IC50, Serine/threonine-protein kinase B-raf (Homo sapiens, UniProt P15056, V600E).
Report the value in µM with no unit label.

Recorded IC50, per entry:
COc1cc(Nc2cncc(-c3cccnc3)n2)cc(OC)c1OC = 22
COc1cc(Nc2cncc(Oc3ccc4ncccc4c3)n2)cc(OC)c1OC = 29

Turning now to a further record.
query: Consider the compound `COc1cc(Nc2cncc(Nc3ccccc3)n2)cc(OC)c1OC` and give its measured IC50.
result: 16

----------
Reported IC50 values are given for each entry in this list.
Biological target: Serine/threonine-protein kinase B-raf (Homo sapiens, UniProt P15056, V600E)
Returns: string containing the number followed by the unit.

Recorded IC50, per entry:
COc1cc(Nc2cncc(-c3ccc(NC(=O)Nc4ccccc4)cc3)n2)cc(OC)c1OC = 1.16 µM
COc1cc(Nc2cncc(Oc3ccncc3)n2)cc(OC)c1OC = 16 µM

query: API: value(readout= IC50, system= Serine/threonine-protein kinase B-raf (Homo sapiens, UniProt P15056, V600E), query= `COc1cc(Nc2cncc(Oc3ccc(NC(C)=O)c4ccccc34)n2)cc(OC)c1OC` )
result: 0.56 µM

query: API: value(readout= IC50, system= Serine/threonine-protein kinase B-raf (Homo sapiens, UniProt P15056, V600E), query= `COc1cc(Nc2cncc(Oc3cccc4ccccc34)n2)cc(OC)c1OC` )
result: 1.2 µM

query: API: value(readout= IC50, system= Serine/threonine-protein kinase B-raf (Homo sapiens, UniProt P15056, V600E), query= `COc1cc(Nc2cncc(Nc3ccc(F)cc3)n2)cc(OC)c1OC` )
result: 19 µM

query: API: value(readout= IC50, system= Serine/threonine-protein kinase B-raf (Homo sapiens, UniProt P15056, V600E), query= `COc1cc(Nc2cncc(Oc3ccc4c(c3)C(=O)CC4)n2)cc(OC)c1OC` )
result: 22 µM

----------
Reported Ratio IC50 values are given for each entry in this list.
Experiment: Selectivity ratio of IC50 for CRAF to IC50 for human BRAF V600E mutant
// keep it numeric: no unit symbol after the value

Recorded Ratio IC50, per entry:
CC(=O)Nc1ccc(Oc2cncc(Nc3cccc(-c4cnco4)c3)n2)c2ccccc12 = 5
CC(=O)Nc1cccc2c(Oc3cncc(Nc4cccc(-c5cnco5)c4)n3)cccc12 = 11
COc1cc(Nc2cncc(-c3ccc(C(N)=O)cc3)n2)cc(OC)c1OC = 34

Turning now to a further record.
query: Consider the molecule `COc1cc(Nc2cncc(Oc3ccc(NC(C)=O)c4ccccc34)n2)cc(OC)c1OC` and give its measured Ratio IC50.
result: 36

----------
Molecular target: Serine/threonine-protein kinase B-raf (Homo sapiens, UniProt P15056, V600E)
# class assignment by measured IC50: lower bin = under 5 µM, middle bin = from 5 µM up to 20 µM, upper bin = 20 µM and over

Would you please look over these solved cases?
COc1cc(Nc2cncc(Oc3cccc(/C(C)=N/O)c3)n2)cc(OC)c1OC = middle bin
COc1cc(Nc2cncc(Oc3cccc4ncccc34)n2)cc(OC)c1OC = middle bin
CC(=O)Nc1cccc2c(Oc3cncc(Nc4cccc(-c5cnco5)c4)n3)cccc12 = lower bin

query: Exercise: read the entry `COc1cc(Nc2cncc(Oc3cccc4c3CCCC4)n2)cc(OC)c1OC` and state which class it falls under.
result: middle bin

query: Exercise: read the entry `CC(=O)Nc1cccc2c(Oc3cncc(Nc4ccc5c(c4)C(=O)OC5)n3)cccc12` and state which class it falls under.
result: lower bin

query: Exercise: read the entry `COc1cc(Nc2cncc(Sc3cccc4ccccc34)n2)cc(OC)c1OC` and state which class it falls under.
result: middle bin

query: Exercise: read the entry `COc1cc(Nc2cncc(-c3cccc(C#N)c3)n2)cc(OC)c1OC` and state which class it falls under.
result: middle bin

----------
Target: Serine/threonine-protein kinase B-raf (Homo sapiens, UniProt P15056, V600E)
Reported IC50 values are given for each entry in this list.
Report the value in µM with no unit label.

COc1cc(Nc2cncc(Nc3cccc(NC(C)=O)c3)n2)cc(OC)c1OC = 14
COc1cc(Nc2cncc(-c3ccc(CO)cc3)n2)cc(OC)c1OC = 26
COc1cc(Nc2cncc(Oc3ccccc3F)n2)cc(OC)c1OC = 45

query: Consider the compound `COc1cc(Nc2cncc(Oc3ccc4c(c3)/C(=N/O)CC4)n2)cc(OC)c1OC` and give its measured IC50.
result: 86

----------
Reported pIC50, Serine/threonine-protein kinase B-raf (Homo sapiens, UniProt P15056, V600E).
// field semantics: pIC50 = negative decimal log of concentration (mol/L)

COc1cc(Nc2cncc(Oc3ccnc4ccccc34)n2)cc(OC)c1OC = 5.82

query: API: value(readout= pIC50, system= Serine/threonine-protein kinase B-raf (Homo sapiens, UniProt P15056, V600E), query= `COc1cc(Nc2cncc(Nc3ccc(O)cc3)n2)cc(OC)c1OC` )
result: 5.31

query: API: value(readout= pIC50, system= Serine/threonine-protein kinase B-raf (Homo sapiens, UniProt P15056, V600E), query= `COc1cc(Nc2cncc(Nc3ccncc3)n2)cc(OC)c1OC` )
result: 5.33

query: API: value(readout= pIC50, system= Serine/threonine-protein kinase B-raf (Homo sapiens, UniProt P15056, V600E), query= `COc1cc(Nc2cncc(Oc3ccccc3)n2)cc(OC)c1OC` )
result: 4.51

query: API: value(readout= pIC50, system= Serine/threonine-protein kinase B-raf (Homo sapiens, UniProt P15056, V600E), query= `COc1cc(Nc2cncc(Oc3ccc(/C(C)=N/O)cc3)n2)cc(OC)c1OC` )
result: 4.59

query: API: value(readout= pIC50, system= Serine/threonine-protein kinase B-raf (Homo sapiens, UniProt P15056, V600E), query= `COc1cc(Nc2cncc(-c3cccc(NC(C)=O)c3)c2)cc(OC)c1OC` )
result: 4.59

query: API: value(readout= pIC50, system= Serine/threonine-protein kinase B-raf (Homo sapiens, UniProt P15056, V600E), query= `COc1cc(Nc2cncc(-c3ccc(O)cc3)n2)cc(OC)c1OC` )
result: 4.74

query: API: value(readout= pIC50, system= Serine/threonine-protein kinase B-raf (Homo sapiens, UniProt P15056, V600E), query= `COc1cc(Nc2cncc(Oc3ccccc3-c3ccccc3)n2)cc(OC)c1OC` )
result: 5.00

query: API: value(readout= pIC50, system= Serine/threonine-protein kinase B-raf (Homo sapiens, UniProt P15056, V600E), query= `COc1cc(Nc2cncc(Nc3ccc(NC(C)=O)cc3)n2)cc(OC)c1OC` )
result: 4.80

query: API: value(readout= pIC50, system= Serine/threonine-protein kinase B-raf (Homo sapiens, UniProt P15056, V600E), query= `CCOC(=O)c1cccc(-c2cncc(Nc3cc(OC)c(OC)c(OC)c3)n2)c1` )
result: 4.85

query: API: value(readout= pIC50, system= Serine/threonine-protein kinase B-raf (Homo sapiens, UniProt P15056, V600E), query= `CC(=O)Nc1ccc(Oc2cncc(Nc3cccc(-c4cnco4)c3)n2)c2ccccc12` )
result: 6.51

query: API: value(readout= pIC50, system= Serine/threonine-protein kinase B-raf (Homo sapiens, UniProt P15056, V600E), query= `COc1cc(Nc2cncc(Nc3cccc(F)c3)n2)cc(OC)c1OC` )
result: 4.92

query: API: value(readout= pIC50, system= Serine/threonine-protein kinase B-raf (Homo sapiens, UniProt P15056, V600E), query= `COc1cc(Nc2cncc(Oc3cccnc3)n2)cc(OC)c1OC` )
result: 4.35

query: API: value(readout= pIC50, system= Serine/threonine-protein kinase B-raf (Homo sapiens, UniProt P15056, V600E), query= `COc1cc(Nc2cncc(Oc3cccc(NC(C)=O)c3)n2)cc(OC)c1OC` )
result: 4.89

query: API: value(readout= pIC50, system= Serine/threonine-protein kinase B-raf (Homo sapiens, UniProt P15056, V600E), query= `COc1cc(Nc2cncc(-c3ccc(C=O)cc3)n2)cc(OC)c1OC` )
result: 5.52

query: API: value(readout= pIC50, system= Serine/threonine-protein kinase B-raf (Homo sapiens, UniProt P15056, V600E), query= `COc1cc(Nc2cncc(Oc3ccc4c(c3)CCCC4=O)n2)cc(OC)c1OC` )
result: 4.12

query: API: value(readout= pIC50, system= Serine/threonine-protein kinase B-raf (Homo sapiens, UniProt P15056, V600E), query= `COc1cc(Nc2cncc(Oc3ccc(C(C)=O)cc3)n2)cc(OC)c1OC` )
result: 4.47
